Entry source: PubChem BioAssay (NCI)

- Test system: SK-OV-3 ovarian
- assay.explanation: NCI-60 one-dose screen, 48 h
- reported.conditions: 10 µM unless noted
About 83,000 compounds went through this panel and 20% of them were active in at least one assay; those are over-represented in the sample as a whole. Active and inactive are the calls of the source. How the source made its calls: active means growth percent below 10; inactive means the rest.
Outcome (select one): active, inactive

Example results:
CC(=O)c1c(Nc2cccc(F)c2)[nH]c2c(Cl)cc(Cl)c(Cl)c2c1=O
active
Cc1ccc(OCCOCCOCCOCCOCCOc2ccc(C)n(O)c2=S)c(=S)n1O
inactive
COc1ccc2cc(C(=O)N3CCC([C@@H](C)C(=O)NCc4ccc5c(c4)OCO5)CC3)[nH]c2c1
active

Tell me the assay call for COc1ccc(/C=C(/C(=O)N2CCNCC2)c2cc(OC)c(OC)c(OC)c2)cc1O please.
inactive

Short answer needed: outcome of this test for Fc1cccc(-c2nc(-c3c[nH]c4ncccc34)cs2)c1 ?
inactive

Per the records of this test, what outcome belongs to CN(C)c1ccc([C@@H](C(=O)Nc2cccc([N+](=O)[O-])c2)N(C(=O)c2cc3ccccc3[nH]2)c2cccc([N+](=O)[O-])c2)cc1 ?
inactive

Please share the test call associated with CCCC(O)Cn1ncc(C(=O)OCC)c1NC(=O)NCc1cccc(C(F)(F)F)c1 (stereo not given) .
inactive

Hi, do you know how COc1ccc(C(c2cc(OC)c(OC)c(OC)c2)N2CCCCC2)cc1 (stereo not given) came out in this test?
inactive

Which outcome was assigned to c1ccc(Nc2nc3c(s2)CCc2c[nH]cc2-3)nc1 in this test?
inactive

# lookup: test call for Cc1cc(=O)oc2cc(Oc3nc(Br)cn4c(Br)cnc34)ccc12
inactive

* * *

- Test system: MDA-MB-435 melanoma
- assay.explanation: NCI-60 one-dose screen, 48 h (100 = growth as untreated, 0 = no growth, -100 = all killed)
- reported.conditions: 10 µM unless noted
This is part of a sample that, as a whole, favours compounds with a hit. Of some 83,000 tested, about 20% had one in any assay.
outcome.measure: growth (%)
Answers are plain numbers, in %.

CNC(=O)NCC1OC(n2cnc3c(NC(=O)Nc4ccccc4)ncnc32)C2OC(=O)CC12 (stereo not drawn)
101
COCCn1cc(-c2csc(-c3c[nH]c4ccccc34)n2)c2cccnc21
2.9
N#Cc1c(-c2ccccc2)nc2c(c(-c3ccc(Cl)cc3)nn2-c2ccccc2)c1-c1ccc([N+](=O)[O-])cc1
103
C=C1C(=O)O[C@H]2[C@H]1CC/C(COC(=O)NCc1ccc(Cn3c(=O)sn(-c4ccc(I)cc4)c3=O)cc1)=C\CC[C@@]1(C)O[C@@H]21
80.9
O=C1Nc2ccccc2/C1=N/N1C(=O)CN(CCCl)C1=O
98.9
CCCOC(=O)Nc1nc2ccc(SCC)cc2s1
3.85

Required: growth, one value per compound below.
1. COC(=O)/C=C1/SC(=Nc2ccc(F)cc2)N(CCc2c[nH]c3ccc(O)cc23)C1=O
2. CCCCNC(=O)c1ccc2c(c1)nc(-c1ccccc1)n2C1CCCCC1

1: 25.4; 2: 99.9

Provide growth values for the following items, in order.
1. COC(=O)/C(CCC=C(C)C)=C1\[C@@H](OC(C)=O)C[C@@]2(C)[C@H]1C/C(=N/O)[C@H]1[C@@]3(C)CC/C(=N\O)[C@@H](C)[C@@H]3CC[C@@]12C
2. O=C(NCCCCCCNC(=O)OCc1ccc2c(Cl)cc(Cl)c(O)c2n1)OCc1ccc2c(Cl)cc(Cl)c(O)c2n1
3. CCOC(=O)CNC1=C(Cl)C(=O)N(Cc2ccc(Cl)cc2)C1=O
4. CN1c2ccccc2S(=O)(=O)n2c(SCC(=O)Nc3nc4ccc(F)cc4s3)nnc21
5. Cn1c(C#N)ccc1-c1ccc(F)c(NC(=O)c2ccc(F)cc2)c1
6. C=C1C(=O)O[C@H]2[C@H]1CC/C(COC(=O)/C=C\C(=O)NCc1ccc(Cn3c(=O)sn(CCCCl)c3=O)cc1)=C\CC[C@@]1(C)O[C@@H]21
7. COc1cc(/C=C2\C(=O)N(CCCOc3cc(O)c4c(=O)cc(-c5ccccc5)oc4c3)c3ccccc32)cc(OC)c1O

[98.6, -82.9, 105, 117, -11.2, 52.8, -35.1]

* * *

- System: SK-OV-3 ovarian
- assay.explanation: NCI-60 one-dose screen, 48 h (100 = growth as untreated, 0 = no growth, -100 = all killed)
- reported.conditions: 10 µM unless noted
This is part of a sample that, as a whole, favours compounds with a hit. Of some 83,000 tested, about 20% had one in any assay.
outcome.measure: growth (%)
Give bare numbers, in %.

CC1=C2CC/C(C)=C/CC[C@]3(C)O[C@H]3CC/C(C)=C/[C@H]2OC1
95.7
CCCCO[C@@H]1C=C2[C@H]3CC(C)(C)C(=O)C[C@]3(C(=O)O[C@@H]3O[C@H](CO[C@@H]4O[C@H](CO)[C@@H](OC5OC(C)C(O)C(O)C5O)[C@H](O)[C@H]4O)[C@@H](O)[C@H](O)[C@H]3O)CC[C@@]2(C)[C@]2(C)CC[C@H]3C(C)(C)C(=O)CC[C@]3(C)[C@@H]12 (some centres undefined)
91.8
Cc1cn(C)cn1
120
CN(C)CCCn1c2c(c3ccncc3c1=O)C(=O)c1ccccc1-2
34.8
Cc1ccc2c(c1)nc(C)n2-c1ncnc2c1CC(C)c1cc(O)ccc1N2C (centres undefined)
14.1

Give growth for all compounds that follow.
1. Cc1c(O)cc(-c2cnc(N/N=C/c3ccccc3)s2)c(O)c1C
2. COc1cc(-c2cc(-c3ccc(Nc4nc(Nc5ccc(Cl)cc5)nc(Nc5ccc(Cl)cc5)n4)cc3)no2)cc(OC)c1OC
3. COc1ccc(C2[C@@H](c3ccccc3)C(=O)N2c2cc(OC)c(OC)c(OC)c2)cc1F (some centres undefined)
4. O=S(=O)(Nc1cc(Sc2nc3ccccc3s2)c(O)c2ccccc12)c1ccc2ccccc2c1

102
90.7
4.86
101

* * *

- Tested on: MOLT-4 leukemia
- assay.explanation: NCI-60 one-dose screen, 48 h (100 = growth as untreated, 0 = no growth, -100 = all killed)
- reported.conditions: 10 µM unless noted
Compounds without any hit were thinned out: in the full panel of roughly 83,000, 20% have a hit.
outcome.measure: growth (%)
Give bare numbers, in %.

CCCCCc1ccc(S(=O)(=O)Nc2ccc3nc(N)oc3c2)cc1
37.1

# map each molecule to its growth
1. C=CCn1cc(-c2nc3ccccc3s2)c2cc(-c3ccc4c5c(cccc35)C(=O)N(CCO)C4=O)ccc21
2. COc1cc2c(cc1-c1c(C)noc1C)ncc1nc(CN3CCOCC3)n([C@H](C)COC(F)F)c12
3. CCCCO[C@@H]1C=C2[C@H]3CC(C)(C)C(=O)C[C@]3(C(=O)O[C@@H]3O[C@H](CO[C@@H]4O[C@H](CO)[C@@H](OC5OC(C)C(O)C(O)C5O)[C@H](O)[C@H]4O)[C@@H](O)[C@H](O)[C@H]3O)CC[C@@]2(C)[C@]2(C)CC[C@H]3C(C)(C)C(=O)CC[C@]3(C)[C@@H]12 (some centres not stated)
4. Cc1ccc2nc(-c3ccc(C(=O)N/N=C/c4ccc([N+](=O)[O-])cc4)cc3)[nH]c2c1
5. O=c1oc2ccccc2cc1-c1nn(-c2ccccc2)cc1-c1nn[nH]n1
6. N=C(N)c1ccc(-c2ccc(-c3cc(Cl)cc(Cl)c3)s2)s1

[91.3, 59.5, 51.5, 93.4, 99, -41.9]

* * *

- Test system: 786-0 renal
- assay.explanation: NCI-60 one-dose screen, 48 h (100 = growth as untreated, 0 = no growth, -100 = all killed)
- reported.conditions: 10 µM unless noted
- Protocol: Cells are grown in 96 well plates and exposed to the test compound for 48 hours. Compounds are tested at a single concentration, which is 10^-5 M for most compounds. The reported endpoint is percent growth (GI% or GIPRCNT), where numbers from 0 - 100% represent growth inhibition, and numbers from -100% - 0 represent cell death. For example, a value of 40 represents 60% growth inhibition. A value of 0 means no net growth occurred over the course of the experiment. […]
This is part of a sample that, as a whole, favours compounds with a hit. Of some 83,000 tested, about 20% had one in any assay. The source made the active and inactive calls. Rule for the calls: active = growth percent below 10; inactive = the rest.
Please go through the items and note down their growth.

Example entries begin here.
COc1cccc(-c2cn3nc(-c4cn(C)c5ccccc45)sc3n2)c1
104% (inactive)
O=S(=O)(NCCNc1nccc(-c2c(-c3ccc(F)c(O)c3)nc3sccn23)n1)c1ccc(Cl)cc1
38.3% (inactive)
COc1cc(/C=C/C(=O)c2cc(OC)c(OC)c(OC)c2)ccc1Oc1nc2c(c(=O)n(C)c(=O)n2C)n1C
-87.4% (active)

Requested field: growth. Item: Cc1ccc2c(/C=C/C(=O)c3cc(CN4CCOCC4)c(O)c4nc(C)ccc34)cc(CN3CCOCC3)c(O)c2n1
-31.9% (active)
